Where do these numbers come from? They come from PubChem BioAssay.

Assay: antimalarial activity against Dd2 strain (AID 2302);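 also: 0% = DMSO untreated growth and 100% = chloroquine plus artemisinin killed control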
Details: P. falciparum Dd2 in RBCs, LDH growth readout, 72 h; at 2 µM; stronger effect = higher value
I would appreciate it if you labelled entries 1 (yes) when growth inhibition is 30% or higher, otherwise 0 (no).

[
  {
    "compound": "c1cnc2ccc(NCc3ccc(-c4ccc(CNC5CCCC5)cc4)cc3)cc2c1",
    "label": "0 (no)"
  },
  {
    "compound": "CNCCNCc1cccc(-c2cccc(-c3nc4ccc(C(F)(F)F)cc4[nH]3)c2)c1",
    "label": "1 (yes)"
  },
  {
    "compound": "COc1ccc2nccc([C@@H](O)CN3CCC(NCc4cc5ccccc5s4)CC3)c2c1",
    "label": "1 (yes)"
  },
  {
    "compound": "O=C(/C=C/c1ccc(Cl)c(Cl)c1)NCCCCCN1CCCN(C(=O)Nc2cc(Cl)cc(Cl)c2)CC1",
    "label": "0 (no)"
  },
  {
    "compound": "O=C(CCc1cnc[nH]1)Nc1cccc(-c2cccc(-c3nc4ccccc4[nH]3)c2)c1",
    "label": "0 (no)"
  },
  {
    "compound": "COc1ccc(Nc2nccc(N3CCC(NC(=O)Nc4cccc(C(C)=O)c4)C3)n2)cc1 (stereo not drawn)",
    "label": "1 (yes)"
  },
  {
    "compound": "O=C(/C=C/c1ccc(Cl)c(Cl)c1)NCCCCCCN1CCN(C(=O)Nc2cc(Cl)nc(Cl)c2)CC1",
    "label": "0 (no)"
  },
  {
    "compound": "CCCCCCOc1ccc(C(=O)NCCC2CCN(CCCCCNC(=O)C=Cc3ccc(Cl)c(Cl)c3)CC2)cc1",
    "label": "0 (no)"
  },
  {
    "compound": "CCN(CCCN1CCCCC1)c1cc(C)nc(Nc2ccc(Oc3ccccc3)cc2)n1",
    "label": "1 (yes)"
  },
  {
    "compound": "CC(=O)Nc1cccc(CNCc2ccc(-c3cnc(N4CCCC(C)(C)C4)nc3)cc2)c1",
    "label": "1 (yes)"
  },
  {
    "compound": "CCCCCN1CCCN(Cc2cccc(NC(=O)c3ccc(Cl)c(Cl)c3)c2)CC1",
    "label": "0 (no)"
  },
  {
    "compound": "c1cncc(CN2CCCN(c3ccc4c(c3)CCN(Cc3ccc(-c5ncc[nH]5)cc3)CC4)CC2)c1",
    "label": "1 (yes)"
  },
  {
    "compound": "Cn1cc(Br)c(-c2cccc(Nc3ccnc4cc(-c5nccs5)ccc34)c2)n1",
    "label": "1 (yes)"
  },
  {
    "compound": "Cc1cc(-c2ccc(NC(=O)c3coc4ccc(N5C[C@@H](C)N(C)[C@@H](C)C5)cc34)cc2C)cc(C)n1",
    "label": "1 (yes)"
  },
  {
    "compound": "FC(F)(F)c1cccc(Nc2nc3ccccc3nc2Nc2cccc(C(F)(F)F)c2)c1",
    "label": "1 (yes)"
  },
  {
    "compound": "COC(=O)c1noc(C)c1I",
    "label": "0 (no)"
  },
  {
    "compound": "O=C(/C=C/c1ccc(C(F)(F)F)cc1)NCCCCCN1CCCN(C(=O)Nc2ccc(Cl)cc2)CC1",
    "label": "0 (no)"
  },
  {
    "compound": "O=C(NCc1ccccc1)c1ncn(CCCN2CCC(N3CCCC3)CC2)c1-c1ccc(Cl)c(Cl)c1",
    "label": "1 (yes)"
  },
  {
    "compound": "CC1CCCN(S(=O)(=O)c2cc(Br)cc3c2N(C(=O)C2CC2)CC3)C1 (stereo not drawn)",
    "label": "1 (yes)"
  },
  {
    "compound": "Fc1ccc(C=NNc2ccnc3ccccc23)cc1",
    "label": "1 (yes)"
  },
  {
    "compound": "c1cc(CNCCc2ccncc2)cc(-c2ccc(-c3nc4ccccc4[nH]3)cc2)c1",
    "label": "1 (yes)"
  },
  {
    "compound": "O=C(Nc1ccc(Cl)cc1F)NC1CCN(CCCCCNC(=O)[C@@H]2C[C@H]2c2ccc(Cl)c(Cl)c2)CC1",
    "label": "0 (no)"
  },
  {
    "compound": "Cc1cc(C)c(NC(=O)N2CCCN(CCCCCNC(=O)/C=C/c3ccc(Cl)c(Cl)c3)CC2)c(C)c1",
    "label": "0 (no)"
  },
  {
    "compound": "CC(=O)NCCNc1nccc(N2CCc3ncnc(Nc4ccc(OCc5ccccn5)c(Cl)c4)c3C2)n1",
    "label": "1 (yes)"
  },
  {
    "compound": "NCCCN(Cc1ccc(Cl)c(Cl)c1)C(=O)Nc1ccc(Cl)c(Cl)c1",
    "label": "1 (yes)"
  },
  {
    "compound": "COc1cc2c(cc1C(F)(F)F)N(C(=O)Nc1cc(-c3ccncc3)cc(-c3cccnc3)c1)CC2",
    "label": "1 (yes)"
  },
  {
    "compound": "Cc1cc(NN=Cc2ccc(Cl)cc2)c2cc(C(F)(F)F)ccc2n1",
    "label": "1 (yes)"
  },
  {
    "compound": "COc1ccc(NC(=O)/C=C/c2cc(F)cc(C(F)(F)F)c2)cc1OCCN(C(C)C)C(C)C",
    "label": "0 (no)"
  },
  {
    "compound": "COc1ccccc1COc1c(C)nc(N)nc1N",
    "label": "0 (no)"
  },
  {
    "compound": "CC(C)NCc1cccc(-c2cccc(NC(=O)c3ccc(C#N)cc3)c2)c1",
    "label": "0 (no)"
  },
  {
    "compound": "CC1Cc2ccccc2N1S(=O)(=O)c1cccc(C(=O)Nc2nc(-c3ccccn3)cs2)c1 (stereo not drawn)",
    "label": "1 (yes)"
  },
  {
    "compound": "Cc1nc(-c2nc(N3CCC(O)CC3)ncc2-c2ccsc2)sc1C",
    "label": "1 (yes)"
  },
  {
    "compound": "CNc1ccc(CNCc2ccc(-c3ccc(-c4nc5c(C)cccc5[nH]4)cc3)cc2)cc1",
    "label": "1 (yes)"
  },
  {
    "compound": "O=C(Nc1cccc(CN2CCCN(Cc3cccc(O)c3)CC2)c1)c1ccc(Cl)c(Cl)c1",
    "label": "1 (yes)"
  },
  {
    "compound": "N#CCOc1c(C2CCN(CCCCNC(=O)c3ccc(-c4ccc(C(F)(F)F)cc4)cc3)CC2)ccc2c1CCCC2",
    "label": "1 (yes)"
  },
  {
    "compound": "Cc1cccc2[nH]c(-c3ccc(-c4ccc(CN5CCC(CCN6CCCCC6)CC5)cc4)cc3)nc12",
    "label": "1 (yes)"
  },
  {
    "compound": "CC(C)CCN1CCCN(Cc2ccc(C(=O)Nc3ccc(Cl)cc3)cc2)CC1",
    "label": "0 (no)"
  },
  {
    "compound": "N#Cc1cncc(-c2nc3c(N4CCC(N5CCCC5)CC4)cccc3n2CCNCc2ccccc2)c1",
    "label": "1 (yes)"
  }
]

###

// inhibition lookup, one value per entry
Biological target: L-lactate dehydrogenase (Plasmodium falciparum (isolate CDC / Honduras)) (UniProt Q27743)
Sequence (Q27743 whole entry, looked up): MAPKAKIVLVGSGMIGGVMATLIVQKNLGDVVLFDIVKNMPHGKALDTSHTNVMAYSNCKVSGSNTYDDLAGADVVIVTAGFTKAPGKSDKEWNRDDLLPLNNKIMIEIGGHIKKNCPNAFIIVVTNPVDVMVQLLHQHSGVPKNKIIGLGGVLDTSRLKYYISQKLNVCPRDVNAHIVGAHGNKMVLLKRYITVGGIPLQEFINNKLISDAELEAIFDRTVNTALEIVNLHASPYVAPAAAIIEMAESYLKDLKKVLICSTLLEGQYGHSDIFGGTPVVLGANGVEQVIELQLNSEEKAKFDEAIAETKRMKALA
Test: PfLDH activity inhibition – cell lysate, 3D7 strain, counter-screen for P. falciparum growth inhibition project (AID 2304);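 also: 0% = vehicle and 100% = reference inhibitor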
Conditions: P. falciparum 3D7 crude extract, LDH APAD/NBT absorbance; at 2 µM; stronger effect = higher value

[
  {
    "line notation": "Cc1noc(C)c1S(=O)(=O)N(C)Cc1ccc(-c2ccc(Cl)cc2)o1",
    "inhibition [%]": -3
  },
  {
    "line notation": "O=c1cc(NCCCNCc2ccc3c(c2)OC(F)(F)O3)[nH]c2ccccc12",
    "inhibition [%]": -6
  },
  {
    "line notation": "CCCCCCN1CCCN(Cc2ccc(C(=O)Nc3ccc(C)c(F)c3)cc2)CC1",
    "inhibition [%]": 0
  },
  {
    "line notation": "O=C(Nc1ccc(OC(F)(F)F)cc1)Nc1ccc([N+](=O)[O-])cc1",
    "inhibition [%]": 3
  },
  {
    "line notation": "COc1ccc(-c2cc(-c3nc4ccc(C(=O)N5CCOCC5)cc4[nH]3)c(=O)n(C)c2)cc1OC",
    "inhibition [%]": 4
  }
]

###

Assay: HepG2 cytotoxicity, primary screen, cytotoxicity control for P. falciparum antimalarial project, cell-based, ATP luminescence (AID 2303);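 also: 0% = DMSO wells and 100% = digitonin-killed cells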
Details: HepG2 viability, 24-48 h, at 10 µM
Calls of active or inactive are those of the source.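 Rule for the calls: active = inhibition above 50%; inactive = the rest.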
Possible outcomes: active, inactive

[
  {
    "molecule": "CCN1CCC(N(Cc2ccc(-c3ccc(C(F)(F)F)cc3)cc2)C(=O)Cn2c(CCc3cccc(F)c3F)cc(=O)c3cn(C)nc32)CC1",
    "label": "inactive"
  },
  {
    "molecule": "CC(CON1C(N)=NC(N)=NC1(C)C)c1ccc(Cl)cc1Cl (stereo not given)",
    "label": "active"
  },
  {
    "molecule": "COc1ccc(Oc2ccc(-c3c(C)[nH]c(C)cc3=O)cc2)cc1",
    "label": "inactive"
  },
  {
    "molecule": "CCCNCc1ccc(-c2ccc(CN(CCOC)C(=O)CC3CCCC3=O)cc2)nc1 (stereo not given)",
    "label": "inactive"
  },
  {
    "molecule": "COc1ccc2ncn(-c3ccc(C(N)=O)c(OCc4ccccc4C(F)(F)F)c3)c2c1",
    "label": "inactive"
  }
]
